MEASURED TARGET: mouse Nact (Mus musculus)
Construct: expressed in transfected cells; host or cells: HEK293 (DSMZ), stably transfected, G418 selection
Sequence (Q67BT3 1-572): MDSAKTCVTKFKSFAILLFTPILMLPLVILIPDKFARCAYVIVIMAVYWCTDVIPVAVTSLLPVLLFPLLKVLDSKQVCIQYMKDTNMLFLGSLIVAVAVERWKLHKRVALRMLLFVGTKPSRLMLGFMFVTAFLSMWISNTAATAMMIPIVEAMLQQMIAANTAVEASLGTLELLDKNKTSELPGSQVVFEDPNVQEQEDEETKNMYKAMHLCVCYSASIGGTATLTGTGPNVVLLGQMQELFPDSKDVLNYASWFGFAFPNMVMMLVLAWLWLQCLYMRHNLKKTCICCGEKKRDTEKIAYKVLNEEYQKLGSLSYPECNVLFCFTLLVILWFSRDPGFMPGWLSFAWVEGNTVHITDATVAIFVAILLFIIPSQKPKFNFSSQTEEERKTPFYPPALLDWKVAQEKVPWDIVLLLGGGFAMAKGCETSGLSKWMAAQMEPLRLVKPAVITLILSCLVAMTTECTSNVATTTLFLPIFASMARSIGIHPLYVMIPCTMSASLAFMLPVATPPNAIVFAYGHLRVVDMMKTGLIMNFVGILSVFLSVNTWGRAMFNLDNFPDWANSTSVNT
TEST PROTOCOL: [14C] citrate uptake in HEK293 cells recombinantly expressing mouse Nact
Format: cell-based
CONDITION INFO: HEK293 mouse Nact; read-out: IC50 HEK293 citrate uptake (mouse)
MEASURED PROPERTY: IC50

GET /value?item= O=C(NCc1ccc(F)cc1)C1CCN(S(=O)(=O)c2cc(Cl)cc(Cl)c2)CC1 [BI01383298, reference compound] &field=IC50 returns > 50 µM

###

MEASURED TARGET: human NaCT (Homo sapiens)
Construct: citrate uptake into HepG2 cells, which endogenously expressed NaCT; host or cells: HepG2
Sequence (Q86YT5 whole entry): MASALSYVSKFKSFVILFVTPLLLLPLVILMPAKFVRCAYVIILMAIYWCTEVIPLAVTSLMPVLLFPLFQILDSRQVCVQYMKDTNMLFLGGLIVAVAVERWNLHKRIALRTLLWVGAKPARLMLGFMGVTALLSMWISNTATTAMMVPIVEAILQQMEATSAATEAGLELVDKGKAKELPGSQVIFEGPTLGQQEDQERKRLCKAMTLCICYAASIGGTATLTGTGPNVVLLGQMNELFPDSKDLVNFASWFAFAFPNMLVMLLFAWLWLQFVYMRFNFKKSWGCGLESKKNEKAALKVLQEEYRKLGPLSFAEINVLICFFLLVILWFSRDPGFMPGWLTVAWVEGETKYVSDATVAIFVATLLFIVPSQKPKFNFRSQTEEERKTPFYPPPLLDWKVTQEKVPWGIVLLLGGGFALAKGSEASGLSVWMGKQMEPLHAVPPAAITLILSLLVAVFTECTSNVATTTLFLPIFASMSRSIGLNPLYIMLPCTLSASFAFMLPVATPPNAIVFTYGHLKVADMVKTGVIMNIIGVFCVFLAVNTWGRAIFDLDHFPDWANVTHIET
TEST PROTOCOL: [14C] citrate uptake in HepG2 cells endogenously expressing human NaCT
Assay type: cell-based
CONDITION INFO: HepG2, human NaCT, citrate substrate
Entries and their measured IC50 follow.
Field format: number, assumed nM, no unit text.

Note to self: IC50 recorded for O=C(Nc1cc(Cl)cc(C(F)(F)F)c1)OCCC(F)(F)F [ETG-5773] was 160

***
Lab book: IC50 of O=C(NCc1ccc(F)cc1)C1CCN(S(=O)(=O)c2cc(Cl)cc(Cl)c2)CC1 [BI01383298, reference compound] noted as 78

###

MEASURED TARGET: mouse Nact (Mus musculus, UniProt Q67BT3)
Construct: expressed in transfected cells; host or cells: HEK293 (DSMZ), stably transfected, G418 selection
TEST PROTOCOL: [14C] citrate uptake in HEK293 cells recombinantly expressing mouse Nact
Format: cell-based
CONDITION INFO: HEK293 overexpressing mouse Nact, citrate substrate; read-out: IC50 [14C] citrate uptake, HEK293 (mouse Nact)
MEASURED PROPERTY: IC50 (nM)
Form entry: value (nM) — number only.

Lookup result for O=C(Nc1cc(Cl)cc(C(F)(F)F)c1)OCCC(F)(F)F ; measured IC50: 180

###

MEASURED TARGET: human NaDC3 (SLC13A3) (Homo sapiens)
Sequence (Q8WWT9 1-602): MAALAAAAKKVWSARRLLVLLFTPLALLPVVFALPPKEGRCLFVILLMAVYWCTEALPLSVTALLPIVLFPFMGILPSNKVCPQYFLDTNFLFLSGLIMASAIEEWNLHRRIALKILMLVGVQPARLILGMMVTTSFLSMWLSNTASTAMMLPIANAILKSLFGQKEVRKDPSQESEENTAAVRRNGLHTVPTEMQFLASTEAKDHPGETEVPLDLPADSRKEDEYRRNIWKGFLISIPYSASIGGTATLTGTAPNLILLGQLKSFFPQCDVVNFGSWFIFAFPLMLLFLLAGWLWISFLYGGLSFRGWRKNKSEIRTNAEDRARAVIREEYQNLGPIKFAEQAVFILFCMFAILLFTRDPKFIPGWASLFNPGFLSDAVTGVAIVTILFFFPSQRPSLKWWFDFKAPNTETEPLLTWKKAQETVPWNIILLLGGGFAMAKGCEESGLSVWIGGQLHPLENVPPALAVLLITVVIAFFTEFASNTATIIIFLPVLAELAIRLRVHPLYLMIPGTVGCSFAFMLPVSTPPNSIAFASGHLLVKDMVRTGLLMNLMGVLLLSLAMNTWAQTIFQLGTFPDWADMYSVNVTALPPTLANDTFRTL
TEST PROTOCOL: [14C] succinate uptake in HEK293 cells overexpressing human NaDC3
CONDITION INFO: HEK293 overexpressing human NaDC3, succinate substrate
MEASURED PROPERTY: IC50

Kindly note the recorded IC50 for O=C(Nc1cc(Cl)cc(C(F)(F)F)c1)OCCC(F)(F)F , which is > 20 µM

Values compiled from paper PMC9413491.
